As shown below, each of these compounds has a reported pIC50 value.
Target: recombinant human SYK360-635 (Homo sapiens)
Construct: truncated construct of Spleen Tyrosine Kinase aa 360-635
Test: SYK kinase assay, 33P ATP filtration (ENZYME_FILTRATION_IC50)
Conditions: SYK aa 360-635 0.5 nM, ATP 20 μM, peptide 5 μM, 30° C. 15 min
Experimental: Determination of IC50 of Spleen Tyrosine Kinase (SYK) Inhibition: SYK kinase assay is a standard kinase assay adapted to a 96 well plate format. […] Phosphorylated products were detected upon termination of reactions with EDTA and the addition of Streptavidin coated beads. […] The percent inhibition was calculated based on the uninhibited enzyme rate: % Inhibition=100/(1+(IC50/Inhibitor conc)^n) […]
On this scale, pIC50 is minus log10 of a concentration expressed in M (mol/L).

Ask | Fill blank: measured pIC50 of the compound O=C(Nc1c[nH]nc1-c1nc2ccccc2s1)C1CCC1 is ____.
Reply | 5.91

Ask | Look up pIC50: CCC(C)(C)Nc1scnc1-c1nc2cc(C)ccc2[nH]1
Reply | 5.79

###

molecular target: recombinant human SYK360-635 (Homo sapiens); construct: truncated construct of Spleen Tyrosine Kinase aa 360-635; experiment: SYK kinase assay, 33P ATP filtration (ENZYME_FILTRATION_IC50); conditions: SYK aa 360-635 0.5 nM, ATP 20 μM, peptide 5 μM, 30° C. 15 min
experimental-endpoint: IC50 (nM)
Write the value in nM as a bare number.

Example entries begin here.
>>> observed_value("CC(=O)OCC(C)(C)C(=O)Nc1c[nH]nc1-c1nc2ccccc2s1 [Compound I-27]")
4640
>>> observed_value("Cc1cccc2[nH]c(-c3ncsc3Nc3cccnc3)nc12 [Compound I-40]")
487

Moving on to another molecule below.
Ask | Data request, read-out IC50, for c1ccc(-c2ncc(-c3cc[nH]n3)s2)cc1 [Compound I-1, 2-Phenyl-5-(1H-pyrazol-3-yl)-thiazole]
Reply | 35200

###

Below: a set of entries, each annotated with reported IC50.
biological target: recombinant human SYK360-635 (Homo sapiens); construct: truncated construct of Spleen Tyrosine Kinase aa 360-635; assay: SYK kinase assay, 33P ATP filtration (ENZYME_FILTRATION_IC50); conditions: SYK aa 360-635 0.5 nM, ATP 20 μM, peptide 5 μM, 30° C. 15 min
Use nM as the unit, but write only the number.

>>> observed_value("CC(C)NC(=O)c1c[nH]nc1-c1nc(-c2ccccc2)cs1")
761
>>> observed_value("CC(C)C(=O)Nc1c[nH]nc1-c1nc2ccccc2s1")
2080

Shift focus to the following entry.
Ask | Need IC50, item O=C(Nc1c[nH]nc1-c1nc2ccccc2[nH]1)C1CCOCC1
Reply | 105

Values compiled from patent US9988378B2.
